# system: Luciferin 4-monooxygenase (Photinus pyralis) (UniProt P08659)
# Sequence (P08659 whole entry, looked up): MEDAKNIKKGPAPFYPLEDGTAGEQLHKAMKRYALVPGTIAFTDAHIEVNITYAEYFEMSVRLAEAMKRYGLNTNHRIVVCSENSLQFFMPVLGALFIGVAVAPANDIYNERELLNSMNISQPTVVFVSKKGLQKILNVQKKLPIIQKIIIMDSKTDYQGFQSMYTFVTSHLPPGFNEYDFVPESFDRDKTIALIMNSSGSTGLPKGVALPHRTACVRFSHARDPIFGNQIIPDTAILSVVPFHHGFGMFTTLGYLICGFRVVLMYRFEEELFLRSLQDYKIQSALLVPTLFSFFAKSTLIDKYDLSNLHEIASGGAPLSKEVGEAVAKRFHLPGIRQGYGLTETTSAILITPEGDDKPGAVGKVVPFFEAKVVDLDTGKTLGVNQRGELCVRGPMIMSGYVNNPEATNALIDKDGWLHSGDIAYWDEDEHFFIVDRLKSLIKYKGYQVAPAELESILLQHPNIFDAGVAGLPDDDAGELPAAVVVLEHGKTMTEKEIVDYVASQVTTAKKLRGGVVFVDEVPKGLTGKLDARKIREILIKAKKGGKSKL
# assay method text: Firefly luciferase inhibition profiling of diverse chemical library using quantitative high-throughput screening; note: nearly all actives have a fitted effect of over 65% in size
# particulars: purified P. pyralis luciferase, luminescence, biochemical; series mostly up to 115 µM
Among all 76,000 compounds or so, about 1,900 (2.5%) were called active. Inconclusive results (about 5%) are left out. Calls come from the whole dose curve; as a rule, active = well fitted inhibition curve with a large enough effect; inconclusive = small, poorly fitted or top-dose-only effect; inactive = flat fitted curve, though single readings scatter. Only a selection was taken, and actives are over-represented in it overall.
Respond using exactly one of the listed classes: TRUE = active, FALSE = inactive

How was COc1ccc(F)cc1CN1CCCC(CO)(CC2CC2)C1 (stereo unspecified) classified in this test?
FALSE

Please share the test call associated with `O=C(NC1CCN(Cc2ccc(F)c(F)c2)CC1)c1ccc2nccn2c1` .
FALSE

Dear colleague, could you share the recorded outcome for O=C1NC2(CCN(Cc3ccccc3)C2)OCc2ccccc21 (stereo unspecified) when you have a moment?
FALSE

Hey, what did the test say about CCN1c2cc(C(=O)NCc3ccc(OC)cc3OC)ccc2C(=O)N2CCCCCC21 (stereo unspecified) ?
FALSE

Would you mind telling me which call this test gave `COc1ccc(C(=O)NCCC2CCN(C(=O)Nc3ccc(F)cc3F)CC2)cc1OC` ?
FALSE

Assay result, entry CN1c2cc(C(=O)Nc3ccc(F)cc3)ccc2C(=O)N2CCCCC21 (stereo unspecified) — outcome?
TRUE

Test call, this molecule: `CN1C(=O)CO[C@H]2CN(C(=O)c3ccccc3)C[C@H]21`
FALSE

Assay result, entry CCN1c2cc(C(=O)Nc3ccc(OC)c(F)c3)ccc2C(=O)N2CCCCC21 (stereo unspecified) — outcome?
FALSE

Per the records of this test, what outcome belongs to Cc1ccc(CNC(=O)c2ccc3c(c2)N(C)C2CCCCN2C3=O)cc1C (stereo unspecified) ?
FALSE

Name the outcome recorded for `O=C(NCCC1CCN(C(=O)Nc2cc(F)ccc2F)CC1)c1cc(F)ccc1F` in the assay.
FALSE

Per the records of this test, what outcome belongs to `COc1cc(=O)n2c(c1C(=O)Nc1cc(C)ccc1C)CCCC2` ?
FALSE

Short answer needed: outcome of this test for `CN(Cc1ccccc1)Cc1cc(CC2(NCc3ccc(OC(F)(F)F)cc3)COC2)no1` ?
FALSE

Would you mind telling me which call this test gave `CC(C)c1noc([C@H]2C[C@@H]3C(=O)NCCCCCCN(C(=O)Cc4cccnc4)[C@@H]3C2)n1` ?
FALSE

Test call for this molecule, please: `COCCNC(=O)[C@H]1C[C@H](Oc2cccnc2)CN1S(=O)(=O)c1cn(C)cn1`
FALSE

What is the recorded call for this molecule in the test? `CN(C)C[C@@H]1CN(Cc2ccccn2)C[C@H]1NC(=O)c1ccc2cc[nH]c2c1`
FALSE

Please indicate how the test categorized CN1c2cc(C(=O)Nc3ccc(F)c(F)c3)ccc2C(=O)N2CCCCCC21 (stereo unspecified) .
TRUE

I would be grateful if you could indicate the recorded call for Cc1cc(NC(=O)c2ccc3c(c2)N(C)C2CCCCCN2C3=O)ccc1F (stereo unspecified) .
TRUE

Called result for `COc1ccc(C)cc1NC(=O)Nc1cccc(-c2ccc(N3CCCCC3)nn2)c1`
TRUE

For this molecule, state the assay outcome: CN(C)C(=O)CC(O)c1cc2n(n1)CCN(C(=O)Cc1ccsc1)C2 (stereo unspecified)
FALSE

GET /call?item= `COc1ccc(C)cc1NC(=O)Cn1nc2n(c1=O)CCCC2` returns the recorded outcome of this test.
FALSE

Look up the recorded call for CCOc1ccc(NC(=O)c2ccc3c(c2)N(C)C2CCCN2C3=O)cc1 (stereo unspecified) in this test.
TRUE
